Result Type: melting point

Check out these entries, answers already filled in.
CCc1nc(-c2ccccc2)[nH]c(=O)c1C :: 195 to 199 °C
O=C(Nc1ccc2ccc(Cl)nc2n1)c1ccc(Cl)cc1 :: 268 °C
O=c1ccn(C2CCCO2)c(=O)[nH]1 (stereo not drawn) :: 99 to 101 °C
O=C(CCl)NCc1ccc2ccn(C3CCN(CCc4ccc(F)cc4)CC3)c2c1 :: 143 to 144 °C
NC(=O)NN=C(CCl)COc1ccc(Cl)cn1 :: 115 to 117 °C

Let us examine a further case.
## Input Note down melting point recorded for c1ccc2c(c1)CCC(n1ccnc1)C2 (stereo not drawn)
## Output 93 to 95 °C

====

Result Type: melting point

Check out these entries, answers already filled in.
CN1C(=O)C(c2ccccc2)NC(=O)/C1=C/c1c[nH]c2ccccc12 (stereo not given) :: 120 to 123 °C
O=C(O)C1Oc2cc3onc(-c4ccccc4)c3c(Cl)c2O1 (stereo not given) :: 102 °C

## Input Note down melting point recorded for COc1ccc(C(=NO)c2sccc2Br)cc1
## Output 110 to 115 °C

## Input Note down melting point recorded for CC12CCC(=O)C([N+](=O)[O-])=C1CCC1C2CCC2(C)C(C(O)CO)CCC12 (stereo not given)
## Output 183 to 185 °C

## Input Note down melting point recorded for CCn1cc(C(=O)O)c(=O)c2c1CCCC2=O
## Output 212 to 214 °C

## Input Note down melting point recorded for CC1(C)COc2ccc(C[C@@H](NC(=O)c3cccc4c3C=CCCC4)[C@@H](O)c3cccc(Cl)c3)cc21 (racemic)
## Output 149 to 150 °C

## Input Note down melting point recorded for CCCCCS(=O)(=O)NC(=O)OCc1ccc(OCCCC)cc1Oc1ncc(C(F)(F)F)cc1Cl
## Output 124 to 126 °C

## Input Note down melting point recorded for C1=Cc2ccccc2C2(CO2)c2ccccc21
## Output 90 to 91 °C

## Input Note down melting point recorded for O=C(NCC(C(O)c1ccc([N+](=O)[O-])cc1)N1CCC(Cc2ccccc2)CC1)c1ccccc1 (stereo not given)
## Output 143 to 147 °C

## Input Note down melting point recorded for CN(C)Cc1nc(-c2ncn3c2CN(C)C(=O)c2c(Cl)cccc2-3)no1
## Output 152 to 153 °C

====

The molecules listed here are annotated with their melting point.

Cc1cccc(-c2nc(N)sc2-c2ccnc(-c3ccc(OCc4cn(C)cn4)cc3)c2)n1 :: 226 to 228 °C
Cc1scc2c1N(C(=O)N1CCC(CCCCN3CCCCC3)CC1)c1ccccc1NC2=O :: 209 to 210 °C

## Input Note down melting point recorded for CC(C)CCCC(C)C1CCC2C3CC=C4CC(Br)CCC4(C)C3CCC12C (stereo not given)
## Output 99.5 to 100 °C

## Input Note down melting point recorded for CCOC(=O)c1cc(OC(C)=O)c2c(c1)c1ccccc1n2C
## Output 123 to 125 °C

## Input Note down melting point recorded for COCc1cn2c(C)c(C)nc2c(O)c1CCC(=O)c1ccccc1
## Output 167 to 168 °C

## Input Note down melting point recorded for N#Cc1ccc(C(=C2CCCCCC2)c2nc[nH]n2)cc1
## Output 79 to 80 °C

====

The compounds listed here are annotated with their melting point.

O=C(O)CS(=O)(=O)Nc1ccc(F)c(C(F)(F)F)c1 :: 138 to 140 °C
Cc1nc2ccc(NC(=O)CC34CC5CC(CC(C5)C3)C4)cc2s1 :: 172 °C
COc1cc(C=CC(=O)c2ccc(C3CCCCC3)cc2)cc(OC)c1 :: 75.5 to 76.2 °C

## Input Note down melting point recorded for C=CC(C)(C)CC(NC(=O)c1ccc(Cl)cc1)NC(=N[N+](=O)[O-])Nc1cccnc1 (configuration not stated)
## Output 186 °C

## Input Note down melting point recorded for N#Cc1ccc2c(c1)S(=O)(=O)c1ccccc1C=C2
## Output 229 to 231 °C

## Input Note down melting point recorded for CCOC(=O)c1cc(C)n(-c2cccnc2)c1-c1ccccc1
## Output 102 to 103 °C

## Input Note down melting point recorded for COc1cc(OC)c2c(=O)[nH]c(-c3ccc(N4CCC(=O)CC4)cc3)nc2n1
## Output > 350 °C

====

Result Type: melting point

Check out these entries, answers already filled in.
COCCn1nc(-c2cc(C(C)(C)C)c(O)c(C(C)(C)C)c2)c2cccnc21 :: 111 to 113 °C
CNC(=O)N(O)C(C)C#Cc1ccc(Br)cc1 (configuration not stated) :: 145 to 146 °C
O=Cc1cccc2ncc(-c3ccccc3)cc12 :: 122 to 124 °C
CC(C)(C)C(=O)c1c[nH]c2ncc(-c3cccc(C#N)c3)nc12 :: 248 to 249 °C
O=c1c2cc3ncn(CCc4cccc(F)c4)c(=O)c3cc2ncn1CCc1cccc(F)c1 :: 250 to 251 °C

## Input Note down melting point recorded for CCOC(=O)NC(=O)NC(=NC(=O)Nc1ccc(Cl)cc1)OC
## Output 140 to 142 °C

## Input Note down melting point recorded for CCOC(=O)Cc1cccc(C(=O)c2ccccc2)c1N
## Output 77 to 78 °C

====

Result Type: melting point

Check out these entries, answers already filled in.
CCOC(=O)c1c(S(=O)Cc2nccn2C)nc2cc(OC)c(OC)cc2c1-c1ccc(OC)c(OC)c1 (centres undefined) :: 151 to 152 °C
CC(O)(c1ccncc1)c1cnc(-c2ccc(F)cc2)s1 (centres undefined) :: 229 to 232 °C
O=C(COc1cccc(-n2nc(-c3ccc(F)cc3)c3cccnc32)c1)N1CCOCC1 :: 141 to 143 °C
CCCC(=O)n1nc2c(c1NC)c(=O)n(CCC)c(=O)n2Cc1ccccc1 :: 138 to 139 °C
CSC1=CC2=CN(S)NN2C(C)=N1 :: 256 to 258 °C
Cc1ccc2c(c1)C(=O)N(Nc1ccccc1)C2=O :: 168 to 170 °C
COC(=O)c1ccc(-c2ccc(Br)c3nsnc23)cc1 :: 188 to 192 °C
O=[N+]([O-])c1ccc(SCCCCl)cc1 :: 50 to 52 °C

## Input Note down melting point recorded for O=C1CC[C@H](N2C(=O)c3cccc(CNC(=O)C4CC4)c3C2=O)C(=O)N1
## Output 219 to 221 °C

## Input Note down melting point recorded for O=C1C=CC2=CN=C(c3ccco3)N3CCC(=C23)N1
## Output 278 to 279 °C

## Input Note down melting point recorded for O=C(O)c1cnc2n(c1=O)CCc1ccc(O)cc1-2
## Output 326 to 327 °C

## Input Note down melting point recorded for CSC(=NS(=O)(=O)c1ccc(C)cc1)N1CCc2nc(N)sc2C1
## Output 191 to 195 °C

## Input Note down melting point recorded for Fc1ccc([C@]2(Cn3nc[nH]c3=S)O[C@H]2c2ccccc2Cl)c(F)c1 (racemic)
## Output 180 °C

## Input Note down melting point recorded for O=C(NCc1cccnc1)c1cc(N2CCN(Cc3ccc(F)cc3)C2=O)n[nH]1
## Output 251 to 253 °C

## Input Note down melting point recorded for O=C(O)C(=O)CC(=O)c1cn(Cc2ccc3ccccc3n2)c2ccccc2c1=O
## Output > 300 °C

====

The compounds listed here are annotated with their melting point.

## Input Note down melting point recorded for CNc1cn(-c2cncnc2)nc1Cl
## Output 111 to 114 °C

## Input Note down melting point recorded for O=C(Nc1ccc(OC(F)(F)F)cc1)NC1CCN(C(=O)c2ccncc2)CC1
## Output 210 to 212 °C

## Input Note down melting point recorded for COc1ccc(C(=O)Nc2c(Cl)cncc2Cl)c2c1OCC2CC(=O)OCc1ccccc1 (centres undefined)
## Output 198 to 205 °C

====

Result Type: melting point

CCOC(=O)c1cc(F)c(C2CNCC2NC(=O)OC(C)(C)C)cc1F (stereo unspecified) :: 98 to 100 °C

## Input Note down melting point recorded for CC(C)c1nc(CC(=O)N[C@H](C(=O)N[C@@H](Cc2ccccc2)C[C@H](O)[C@H](Cc2ccccc2)NC(=O)OCc2cncs2)C(C)C)cs1
## Output 153 to 155 °C

## Input Note down melting point recorded for C=CCN(C(C)c1ccccc1)S(=O)(=O)c1ccc(O)cc1 (stereo unspecified)
## Output 128 to 129 °C

====

Result Type: melting point (°C)

CNC(=O)n1sc(SCc2ccc(Cl)cc2)nc1=O :: 140

(P) CN1CC[C@@H](c2cc(Cl)ccc2O)[C@@H]1c1ccccc1I (relative stereo)
(Q) Oc1ccnc2ncnn12
## Input Larger number for melting point: P , or Q ? Indicate your choice by writing its label.
## Output Q

====

The molecules listed here are annotated with their melting point.

CCc1ccccc1S(=O)(=O)N(OCCF)C(=O)n1nc(C)n(C2CC2)c1=O :: 147 °C
CN(C)CCOc1ccc(C2(c3ccccc3)OCCC2c2ccccc2)cc1 (configuration not stated) :: 83 to 85 °C
CCOC(=O)CN1C(=O)C(NC(=O)Nc2ccc(Cl)cc2)N=C(c2ccccc2F)c2ccccc21 (configuration not stated) :: 253 to 254 °C
COc1ccc(C(=O)N2c3ccccc3C(N3CCCc4cc(NC(=O)OC(C)(C)C)ccc43)CC2C)cc1OC (configuration not stated) :: 192 to 193 °C
CC(C)NP(N)(=O)NC(=O)c1ccc(F)cc1 (configuration not stated) :: 197 to 199 °C

## Input Note down melting point recorded for O=C(NC(=O)c1ccccc1)NC1CCCc2ccccc21 (configuration not stated)
## Output 166 to 169 °C

## Input Note down melting point recorded for CCCCCCc1nc2cnc3ccccc3c2n1CCCCNS(=O)(=O)c1ccccc1
## Output 137 to 138 °C

## Input Note down melting point recorded for CS(=O)(=O)c1ccc(Oc2ccc(Cl)c(Cl)c2)c(Cl)c1
## Output 102 to 104 °C

## Input Note down melting point recorded for CCC(N(C)C)n1cc(C(=O)CN2CCCCC2)cc1C(=O)c1ccc(Cl)cc1 (configuration not stated)
## Output 138 to 141 °C

## Input Note down melting point recorded for CCCCN(CC)c1cc(C)nc(Oc2c(C)cc(Cl)cc2C)c1C
## Output 177 to 178 °C

## Input Note down melting point recorded for CCCCN(CCCC)c1ccc(C=Cc2ccc(C=CC3=C(C#N)C(=C(C#N)C#N)OC3(C)C)s2)c(O[Si](c2ccccc2)(c2ccccc2)C(C)(C)C)c1
## Output 218 to 219 °C

## Input Note down melting point recorded for Cc1ccc2oc(=O)c(NC(=O)Nc3ccc(F)cc3F)c(-c3ccccc3C)c2c1
## Output 213 to 214 °C

## Input Note down melting point recorded for Nc1nc(-c2cc(Cl)ccc2Cl)nc(N(CCO)CCO)n1
## Output 199 to 200 °C

## Input Note down melting point recorded for COc1cc2c(cc1F)CC/C2=C\C#N
## Output 197 to 199 °C
